target: MMP-14 (Homo sapiens, UniProt P50281); assay: Selection and phage ELISA screening of anti-MMP-14 Fabs; assay type: binding; conditions: Fab from FAB310 phage display library
recorded endpoint: bind to human MMP-14

| molecule | reported measurement |
| --- | --- |
| M0041-H09: Fab that binds human MMP-14; DNA LV SEQ ID NO: 118, HV SEQ ID NO: 119 (antibody, V domains shown, Synthetically generated oligonucleotide) VL: QDIQMTQSPGTLSLSPGERATLSCRASQSLSGDYLAWYQQKIGQAPRLLIFGASRRPTGIPDRFSGSGSGTDFALTISRLEPEDFAVYYCQQYGSLITFGQGTRLEIK VH: EVQLLESGGGLVQPGGSLRLSCAASGFTFSVYEMTWVRQAPGKGLEWVSGIGSSGGMTFYADSVKGRFTISRDNSKNTLYLQMNSLRAEDTAVYYCARIRYSGSYGWHYMDVWGKGTTVTVSS | bind to human MMP-14 |
| M0037-A08: Fab that binds human MMP-14; DNA LV SEQ ID NO: 36, HV SEQ ID NO: 37 (antibody, V domains shown, Synthetically generated oligonucleotide) VL: QDIQMTQSPSSVSASVGDRVTITCRASQGVSSYLAWYQQKPGKAPKLLIYGASTLQNGVPSRFSGSGSGTDFTLTISSLQPEDFATYHCQQVHSFPPTFGQGTKVEIK VH: EVQLLESGGGLVQPGGSLRLSCAASGFTFSHYMMMWVRQAPGKGLEWVSGISSSGGRTGYADSVKGRFTISRDNSKNTLYLQMNSLRAEDTAVYYCASFGNSGSYSWRAFDIWGQGTTVTVSS | bind to human MMP-14 |

Measured values drawn from patent US8106168B2 for this set.
